Biological target: ZFPm1 six-finger zinc finger protein (Sp1C framework) (artificial)
Sequence (chain, as listed by the source): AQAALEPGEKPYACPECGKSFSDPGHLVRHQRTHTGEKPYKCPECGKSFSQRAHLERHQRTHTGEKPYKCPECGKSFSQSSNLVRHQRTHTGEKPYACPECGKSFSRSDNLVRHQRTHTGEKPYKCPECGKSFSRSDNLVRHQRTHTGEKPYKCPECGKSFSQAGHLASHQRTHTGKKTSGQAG
Test: EMSA; Zn Buffer A, 10% glycerol, 0.8% BSA, salmon sperm DNA, room temp
Conditions: tags: MBP fusion (pMAL-C2), E. coli; label: 5'-biotin (ELISA); 32P (gel shift); hairpin
readout: pKd
In plain terms, pKd is the concentration in mol/L turned into minus its base-10 logarithm.

# lookup: pKd of m12 hairpin oligo (dsDNA) DNA: GGAGCCTCCTTCCTCCTCTCACTCGGGTTTTCCCGAGTGAGAGGAGGAAGGAGGCTCC 8.70
